Values were extracted from patent US20120115865A1.

test: Hygroscopicity by Dynamic Vapour Sorption Analysis (DVS); format: physicochemical; conditions: relative humidity 40%, 25° C.
Where a name gives a salt, the structure may show the parent alone.
Listing of entries alongside the reported moisture uptake.
Just the number please, in % w/w, no unit attached.

Reported moisture uptake for N#Cc1ccc2[nH]c(O)c(-c3ccc(CN4CCOCC4)cn3)c2c1 [HCl, reference compound] was 8.7

Reported moisture uptake for CS(=O)(=O)O.N#Cc1ccc2[nH]c(O)c(-c3ccc(CN4CCOCC4)cn3)c2c1 [Mesylate] was 0.7

Reported moisture uptake for CCS(=O)(=O)O.N#Cc1ccc2[nH]c(O)c(-c3ccc(CN4CCOCC4)cn3)c2c1 [Esylate] was 0.5

Reported moisture uptake for N#Cc1ccc2[nH]c(O)c(-c3ccc(CN4CCOCC4)cn3)c2c1.O=C(O)/C=C\C(=O)O [Maleate] was 1.7

Reported moisture uptake for N#Cc1ccc2[nH]c(O)c(-c3ccc(CN4CCOCC4)cn3)c2c1.O=P(O)(O)O [Phosphate] was 4.1

Reported moisture uptake for N#Cc1ccc2[nH]c(O)c(-c3ccc(CN4CCOCC4)cn3)c2c1.O=C(O)/C=C/C(=O)O [Fumarate] was 3.8

---

assay: Hygroscopicity by Dynamic Vapour Sorption Analysis (DVS); assay type: physicochemical; conditions: relative humidity 80%, 25° C.
Structures can show the parent of a compound that is named as a salt.
Listing of entries alongside the reported moisture uptake.

Reported moisture uptake for CCS(=O)(=O)O.N#Cc1ccc2[nH]c(O)c(-c3ccc(CN4CCOCC4)cn3)c2c1 [Esylate] was 1.2 % w/w

Reported moisture uptake for N#Cc1ccc2[nH]c(O)c(-c3ccc(CN4CCOCC4)cn3)c2c1.O=C(O)/C=C\C(=O)O [Maleate] was 2.7 % w/w

Reported moisture uptake for CS(=O)(=O)O.N#Cc1ccc2[nH]c(O)c(-c3ccc(CN4CCOCC4)cn3)c2c1 [Mesylate] was 1.6 % w/w

Reported moisture uptake for N#Cc1ccc2[nH]c(O)c(-c3ccc(CN4CCOCC4)cn3)c2c1.O=C(O)/C=C/C(=O)O [Fumarate] was 5.1 % w/w

Reported moisture uptake for N#Cc1ccc2[nH]c(O)c(-c3ccc(CN4CCOCC4)cn3)c2c1 [HCl, reference compound] was 13.0 % w/w

Reported moisture uptake for N#Cc1ccc2[nH]c(O)c(-c3ccc(CN4CCOCC4)cn3)c2c1.O=P(O)(O)O [Phosphate] was 10.8 % w/w

---

experiment: Hygroscopicity by Dynamic Vapour Sorption Analysis (DVS); assay type: physicochemical; conditions: relative humidity 60%, 25° C.
Counter-ions that a name gives are not always drawn.
Quantity kind: moisture uptake (% w/w)
Just the number please, in % w/w, no unit attached.

Example cases with answers are listed next.
Compound	moisture uptake [% w/w]
N#Cc1ccc2[nH]c(O)c(-c3ccc(CN4CCOCC4)cn3)c2c1.O=P(O)(O)O [Phosphate]	6.6
CCS(=O)(=O)O.N#Cc1ccc2[nH]c(O)c(-c3ccc(CN4CCOCC4)cn3)c2c1 [Esylate]	0.8
N#Cc1ccc2[nH]c(O)c(-c3ccc(CN4CCOCC4)cn3)c2c1.O=C(O)/C=C/C(=O)O [Fumarate]	4.5

Reported moisture uptake for CS(=O)(=O)O.N#Cc1ccc2[nH]c(O)c(-c3ccc(CN4CCOCC4)cn3)c2c1 [Mesylate] was 1.1

Reported moisture uptake for N#Cc1ccc2[nH]c(O)c(-c3ccc(CN4CCOCC4)cn3)c2c1 [HCl, reference compound] was 11.5

Reported moisture uptake for N#Cc1ccc2[nH]c(O)c(-c3ccc(CN4CCOCC4)cn3)c2c1.O=C(O)/C=C\C(=O)O [Maleate] was 2.2
